- TEST_TARGET: FXR ligand binding domain (Homo sapiens, UniProt Q96RI1)
- Sequence (Q96RI1 187-472 isoform Q96RI1-2): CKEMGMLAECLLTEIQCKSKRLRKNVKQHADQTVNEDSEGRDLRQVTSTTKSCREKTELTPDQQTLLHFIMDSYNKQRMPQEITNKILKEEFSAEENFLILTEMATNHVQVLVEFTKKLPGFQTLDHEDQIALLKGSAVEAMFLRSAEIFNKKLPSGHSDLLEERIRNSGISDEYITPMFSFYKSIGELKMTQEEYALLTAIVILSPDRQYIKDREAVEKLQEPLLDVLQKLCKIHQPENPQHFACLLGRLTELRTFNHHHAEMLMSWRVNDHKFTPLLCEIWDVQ
- ASSAY_EXPLANATION: Mammalian One Hybrid (M1H) assay, Gal4 promoter driven transactivation in HEK293 cells
- CONDITIONS: Gal4-FXR-LBD luciferase reporter, 16 h
READOUT_NAME: EC50 (nM)

{"columns": ["COMPOUND", "EC50 [nM]"],
 "data": [
  ["O=C(O)c1cc(F)c2nc([C@]3(O)[C@@H]4CC[C@H]3C[C@H](OCc3c(-c5c(Cl)c[n+]([O-])cc5Cl)noc3C3CC3)C4)sc2c1", 140]
]}

A = CC1(OCc2c(-c3c(Cl)cccc3Cl)noc2C2CC2)C[C@H]2CC[C@@H](C1)[C@]2(O)c1nc2c(F)cc(C(=O)O)cc2s1 (single isomer, unassigned)
B = OCc1ccc(F)c([C@]2(O)CC[C@@H](OCc3c(-c4c(Cl)cccc4Cl)noc3C3CC3)CC2)c1
Between item A and item B , which reported EC50 is smaller? Answer = label. B

====

- TEST_TARGET: FXR ligand binding domain (Homo sapiens, UniProt Q96RI1)
- ASSAY_EXPLANATION: Mammalian One Hybrid (M1H) assay, Gal4 promoter driven transactivation in HEK293 cells
- CONDITIONS: Gal4-FXR-LBD luciferase reporter, 16 h
pEC50: −log10 of the molar value.
READOUT_NAME: pEC50

{"columns": ["COMPOUND", "pEC50"],
 "data": [
  ["O=C(O)c1ccc2nc([C@]3(O)CC[C@@H](OCc4c(-c5c(Cl)cccc5Cl)noc4C4CC4)CC3)sc2c1 [Example 11-30]", 7.17],
  ["O=C(O)c1cc(F)c2nc([C@]3(O)CC4CC3CC4OCc3c(-c4c(Cl)cccc4Cl)noc3C3CC3)sc2c1 (stereo partly drawn) [Example 11-49]", 7.03]
]}

1 = O=C(O)c1cccc2nc([C@]3(O)CC[C@@H](OCc4c(-c5c(Cl)cccc5Cl)noc4C4CC4)CC3)sc12 [Example 26]
2 = O[C@@]1(c2nc3ccc(Br)cc3s2)[C@@H]2CC[C@H]1C[C@H](OCc1c(-c3c(Cl)cccc3Cl)noc1C1CC1)C2 [Example 15-1]
3 = CC1(C)C[C@@H](OCc2c(-c3c(Cl)cccc3Cl)noc2C2CC2)CC[C@]1(O)c1nc2c(F)cc(C(=O)O)cc2s1 (racemic) [Example 11-32]
hey, can you rank those compounds up there by pEC50? biggest number first please Enter labels, ranked according to the request. 3, 2, 1
